Tested on: A673/TR/shEF
Experiment: cell viability (LOESS-normalised, relative to median of negative controls) (log2 ratio); higher = more viable cells (less compound effect), active = hit call of the paper (over 3 MAD below the median)
Conditions: 0.25 µM; library screen: screen1; EWS-FLI1 expression: low (doxycycline-induced shRNA knockdown); treatment time: 72 h
Out of some 3,200 compounds screened, about 300 (9.4%) showed activity. The list comes from a sample in which actives are over-represented; it also holds close analogues and randomly drawn compounds.
Rule: measured cell viability (log2) below 0.04 gets Yes; anything equal to or greater than 0.04 gets No.

O.O=C1OC2(c3cc(Br)c([O-])cc3Oc3c2cc(Br)c([O-])[c]3[Hg])c2ccccc21.[Na+].[Na+] (configuration not stated); No
CNc1ccc2oc(C[C@@H]3OC4(CC[C@@H]3C)O[C@H](C(C)C(=O)c3ccc[nH]3)[C@H](C)C[C@H]4C)nc2c1C(=O)O (some centres not stated); Yes
CCNc1nc(Cl)nc(NC(C)C)n1; No
O=S1OCC2C(CO1)C1(Cl)C(Cl)=C(Cl)C2(Cl)C1(Cl)Cl (configuration not stated); No
OC[C@H]1O[C@@H](n2cnc3cc(Cl)c(Cl)cc32)[C@H](O)[C@@H]1O; Yes
CN(C)C(=S)SSC(=S)N(C)C; Yes
C[C@@H](N)[C@@H](O)c1ccccc1; No
Clc1ccc(Cl)cc1; No
COc1cc([C@@H]2c3cc4c(cc3[C@H](OC(C)=O)[C@H]3COC(=O)[C@H]23)OCO4)cc(OC)c1OC; Yes
CC[C@@H](C(=O)[C@@H](C)[C@@H](O)[C@H](C)[C@@H]1O[C@@H]([C@@H](CC)C(=O)O)CC[C@@H]1C)[C@H]1OC2(C=C[C@@H](O)[C@]3(CC[C@@](C)([C@H]4CC[C@](O)(CC)[C@H](C)O4)O3)O2)[C@H](C)C[C@@H]1C (some centres not stated); No
COc1ccc2c(c1OC)C(=O)O[C@H]2[C@H]1c2cc3c(cc2CCN1C)OCO3; No
C[C@]12C=CC(=O)C=C1CC[C@@H]1[C@@H]2CC[C@]2(C)C(=O)CC[C@@H]12; Yes
COc1cc([C@@H]2c3cc4c(cc3[C@H](O)[C@H]3COC(=O)[C@H]23)OCO4)cc(OC)c1OC; Yes
Cc1c(N)nc([C@H](CC(N)=O)NC[C@H](N)C(N)=O)nc1C(=O)N[C@H](C(=O)N[C@H](C)[C@@H](O)[C@H](C)C(=O)N[C@H](C(=O)NCCc1nc(-c2nc(C(=O)NCCC[S+](C)C)cs2)cs1)[C@@H](C)O)[C@@H](OC1OC(CO)C(O)C(O)C1OC1OC(CO)C(O)C(OC(N)=O)C1O)c1cnc[nH]1 (some centres not stated); No
CN[C@@H](C)[C@H](O)c1ccccc1; No
C[C@@H]1C[C@@H]([C@H](O)CC2CC(=O)NC(=O)C2)C(=O)[C@@H](C)C1; Yes
CC(Cc1ccc(O)cc1)NCC(O)c1cc(O)cc(O)c1 (configuration not stated); No

* * *

Test system: A673/TR/shEF
Assay: cell viability (LOESS-normalised, relative to median of negative controls) (log2 ratio); higher = more viable cells (less compound effect), active = hit call of the paper (over 3 MAD below the median)
Conditions: 0.25 µM; library screen: screen2; EWS-FLI1 expression: high (no doxycycline); treatment time: 72 h
Out of some 3,200 compounds screened, about 300 (9.4%) showed activity. Many of the other results were omitted from the sample, so actives are more common in it than they were.
// values below are reported cell viability (log2)
measure: cell viability (log2)

C[C@H]1OC[C@@H](C[N+](C)(C)C)O1; 0.185
NC(=NCCCC(N)C(=O)O)N[N+](=O)[O-] (stereo unspecified); 0.174
N[C@@]1(C(=O)O)CC[C@@H](C(=O)O)C1; 0.102
CC(C)(C)c1cc(C=C(C#N)C#N)cc(C(C)(C)C)c1O; 0.104
CC(=O)[C@H]1CC[C@H]2[C@@H]3CC[C@H]4C[C@H](O)CC[C@]4(C)[C@H]3CC[C@]12C; 0.267
NNCc1cccc(O)c1; 0.129
CNc1ccc2oc(C[C@@H]3OC4(CC[C@@H]3C)O[C@H](C(C)C(=O)c3ccc[nH]3)[C@H](C)C[C@H]4C)nc2c1C(=O)O (stereo partly specified); -0.082
C=CCN1CC[C@@]2(C)c3cc(O)ccc3CC1[C@@H]2C; 0.194
COc1cc2c(c(OC)c1OC)-c1ccc(OC)c(=O)cc1[C@@H](NC(C)=O)CC2; -3.33
CN1CC[C@@]2(C)c3cc(O)ccc3N(C)C12 (stereo partly specified); 0.117
O=C(CCCN1CCC2(CC1)C(=O)N(CCc1ccc(N=C=S)cc1)CN2c1ccccc1)c1ccc(F)cc1; 0.156
CC(Cc1ccc(OCC(=O)O)cc1)NCC(O)c1cccc(Cl)c1 (stereo unspecified); 0.122
NCC(O)c1cc(O)c(O)cc1F (stereo unspecified); 0.233
O=C(O)[C@@H]1CCN1; 0.101
Nc1ncnc2c1ncn2[C@@H]1O[C@H](COP(=O)(O)CP(=O)(O)OP(=O)([O-])[O-])[C@H](O)C1O.[Li+].[Li+] (stereo partly specified); 0.132
C[C@@H]1O[C@H](C[N+](C)(C)C)C[C@H]1O; 0.143
CC(=O)OCC1=C(C(=O)O)N2C(=O)[C@@H](NC(=O)CCC[C@@H](N)C(=O)O)[C@H]2SC1; 0.263
CC1(C(=O)O)C2CCC(O2)C1(C)C(=O)O (stereo unspecified); 0.137
C[C@]12CC[C@H](O)CC1=CC[C@@H]1[C@@H]2CC[C@]2(C)C(=O)CC[C@@H]12; 0.133
CC[C@@]1(O)C(=O)OCc2c1cc1n(c2=O)Cc2cc3ccccc3nc2-1; -2.99
C=CCN1CCc2cccc3c2[C@H]1Cc1ccc(O)c(O)c1-3; 0.199
CC12CCC3C(CC=C4CC(OS(=O)(=O)O)CCC43C)C1CCC2=O (stereo unspecified); 0.0737
CN1C2CCC1CC(OC(c1ccccc1)c1ccc(Cl)cc1)C2 (stereo unspecified); 0.142
Oc1ccc2c3c1O[C@H]1c4oc5ccccc5c4C[C@@]4(O)C(C2)N(CC2CC2)CCC314 (stereo partly specified); 0.123
O=C(O)C1C2CCC(O2)C1C(=O)O (stereo unspecified); 0.267
C[N+]1(C)[C@H]2CC(OC(=O)C(CO)c3ccccc3)C[C@H]1[C@H]1O[C@H]12 (stereo partly specified); 0.258
C[C@@H]1c2cc(O)c(O)cc2CCN1C; 0.203
CCCN1CCc2cccc3c2[C@H]1Cc1ccc(O)c(O)c1-3; 0.161
C[C@@]12C(=O)OC(=O)[C@]1(C)[C@H]1CC[C@@H]2O1; 0.254
C[C@H]1C(=O)O[C@@H]2CCN3CC=C(COC(=O)[C@](C)(O)[C@]1(C)O)[C@H]23; 0.122
Cc1cc([C@@H]2CCCN2C)on1; 0.0967
CC(=O)c1c(O)c(C)c(O)c(Cc2c(O)c3c(c(C(=O)/C=C/c4ccccc4)c2O)OC(C)(C)C=C3)c1O; 0.209
COc1cc(C(O)CN)ccc1O (stereo unspecified); 0.137
COc1cc(CC(C)N)c(OC)cc1I (stereo unspecified); 0.14
O=C(O)c1cc[c]([Hg][Cl])cc1; 0.203
CCCN1CCC[C@@H](c2cccc(C#N)c2)C1; 0.21
CN1CC[C@]2(CCN3CCc4c(oc5ccccc45)[C@@H]3C2)N(C)C1=O; 0.195
COc1ccc(CCN)cc1O; 0.19
CC(=O)O[C@H]1C[C@@H]2CC[C@@H]3[C@H](CC[C@@]4(C)[C@H]3C[C@H]([N+]3(C)CCCCC3)[C@@H]4OC(C)=O)[C@@]2(C)C[C@@H]1[N+]1(C)CCCCC1; 0.133
COC[C@H]1OC(=O)c2coc3c2[C@@]1(C)C1=C(C3=O)[C@@H]2CCC(=O)[C@@]2(C)C[C@H]1OC(C)=O; 0.179
COc1ccc2c3c1O[C@H]1C(=O)CC[C@@]4(O)C(C2)N(CC2CC2)CCC314 (stereo partly specified); 0.143

Value source: the supplement of paper PMC6089552
